Target or system IRAK4 (Homo sapiens (Human), UniProt Q9NWZ3); metric pIC50; compiled from varied reports.
Hey, just a heads up that pIC50 is the negative log base 10 of the concentration in molar.

Worked examples, 2 molecules total:
{"smiles.data": "Cc1nsc2nc(Nc3cnn([C@H]4CCOC4)c3)nc(N[C@H]3CC[C@H](N4CCOCC4)CC3)c12", "target.desc": "IRAK4 (Homo sapiens (Human), UniProt Q9NWZ3)", "readout.number": 8.00}
{"smiles.data": "c1ncc(-c2ccc3ncnc(N[C@H]4CC[C@H](N5CCOCC5)CC4)c3c2)cn1", "target.desc": "IRAK4 (Homo sapiens (Human), UniProt Q9NWZ3)", "readout.number": 8.52}

Now consider a different molecule.
Task: Quickly give me recorded pIC50 for CC(C)Nc1c(-n2cc(CCC(C)(C)O)nn2)cnc2sc(-c3cccnc3)cc12
Result: 6.77
